- STUDY SYSTEM: Nuclear receptor ROR-gamma (Mus musculus)
- METHOD SUMMARY: qHTS for inhibitors of ROR gamma transcriptional activity; also: nearly all actives have a fitted effect of over 60% in size
- TEST SETTINGS: Drosophila S2 Gal4-RORgamma UAS-luciferase reporter, 20 h; series mostly up to 53.6 µM
The campaign covered roughly 310,000 compounds. About 17,000 (5.5%) were called active. About 11% were inconclusive and are not listed. Calls follow the shape of the dose curve; as a rule, active = well fitted inhibition curve with a large enough effect; inconclusive = small, poorly fitted or top-dose-only effect, or effect the other way; inactive = no such curve, though single readings can be large or run the other way. What follows is part of a selection rich in actives, with near analogues and random picks from the rest.
Give your call using only these classes: active, inactive

q: Name the outcome recorded for CC(=O)c1ccc(N2Cc3ccccc3C2)cc1 in the assay.
a: inactive

q: Thanks! And Cc1cc2[nH]ncc2cc1NC(=S)NC(=O)c1ccccc1 ?
a: inactive

q: Thanks! And O=C(Nc1nncs1)c1ccccc1NS(=O)(=O)c1cccs1 ?
a: inactive

q: Thanks! And C=C1C(=O)C23C(O)C1CCC2[C@]12COC3(O)C(O)C1C(C)(C)CC[C@H]2O (stereo partly specified) ?
a: active

q: Thanks! And O=C(CNC(=O)c1ccc(Br)o1)Nc1ccccc1 ?
a: inactive

q: Thanks! And Cc1cccc(NC(=O)/C(=C\c2ccco2)NC(=O)c2ccccc2)c1 ?
a: inactive

q: Thanks! And COc1ccc(CNC(=O)C(NS(=O)(=O)c2cccc3nsnc23)C(C)C)cc1 (stereo unspecified) ?
a: inactive

q: Thanks! And COc1cc(OC)c(NC(=O)c2ccc(Br)o2)cc1Cl ?
a: inactive

q: Thanks! And Cc1ccc(NC(=S)NC(=O)c2ccc(-c3ccccc3)cc2)c(C)c1 ?
a: active

q: Thanks! And CC(C)C(NS(=O)(=O)c1cccs1)C(=O)Nc1nc(C(C)(C)C)cs1 (stereo unspecified) ?
a: active

q: Thanks! And Cc1cccc(NC(=O)NC(=S)NC(=O)c2ccccc2)c1 ?
a: active

---

- STUDY SYSTEM: Nuclear receptor ROR-gamma (Mus musculus) (UniProt P51450)
- Sequence (P51450 whole entry, looked up): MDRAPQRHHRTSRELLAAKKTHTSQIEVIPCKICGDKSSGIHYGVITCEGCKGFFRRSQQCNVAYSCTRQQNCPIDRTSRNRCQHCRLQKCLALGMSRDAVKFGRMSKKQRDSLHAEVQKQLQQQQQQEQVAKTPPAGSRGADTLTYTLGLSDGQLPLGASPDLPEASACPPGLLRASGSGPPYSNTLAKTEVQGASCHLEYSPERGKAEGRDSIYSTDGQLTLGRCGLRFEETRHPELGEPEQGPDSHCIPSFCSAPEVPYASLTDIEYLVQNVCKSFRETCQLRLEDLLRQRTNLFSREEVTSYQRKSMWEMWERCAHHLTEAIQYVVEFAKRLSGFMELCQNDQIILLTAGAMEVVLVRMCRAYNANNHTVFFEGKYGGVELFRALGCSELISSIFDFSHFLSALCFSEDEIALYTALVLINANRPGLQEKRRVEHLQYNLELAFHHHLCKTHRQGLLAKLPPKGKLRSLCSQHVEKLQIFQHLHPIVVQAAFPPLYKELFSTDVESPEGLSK
- METHOD SUMMARY: qHTS for inhibitors of ROR gamma transcriptional activity; also: nearly all actives have a fitted effect of over 60% in size
- TEST SETTINGS: Drosophila S2 Gal4-RORgamma UAS-luciferase reporter, 20 h; series mostly up to 53.6 µM
About 17,000 (5.5%) of roughly 310,000 compounds were called active. About 11% were inconclusive and are not listed. The call rests on the fitted dose curve; in most records, active means well fitted inhibition curve with a large enough effect; inconclusive means small, poorly fitted or top-dose-only effect, or effect the other way; inactive means no such curve, though single readings can be large or run the other way. The sample holds actives, similar compounds and a random draw of the others, so the mix is not that of the screen.
Give your call using only these classes: 1 for active, -1 for inactive

q: Name the outcome recorded for CCOC(=O)c1c(-c2ccccc2)oc2ccc(OCC(N)=O)cc12 in the assay.
a: -1

q: Thanks! And O=C(C1CCCO1)N1CCN(C(=S)Nc2cccc(Cl)c2)CC1 (stereo unspecified) ?
a: -1

q: Thanks! And Cc1cccc(C(=O)N2CCC(c3nc4ccccc4s3)CC2)c1 ?
a: -1

q: Thanks! And CC(C)c1ccc(NC(=S)NC2CC3C=CC2C3)cc1 (stereo unspecified) ?
a: 1

q: Thanks! And O=C(NC1CCCC1)C1CCN(C(=O)Nc2cccc(Cl)c2)CC1 ?
a: -1

q: Thanks! And COc1ccc(OC)c(NC(=O)c2cccc(S(=O)(=O)N3CCN(C(C)=O)CC3)c2)c1 ?
a: -1

---

- STUDY SYSTEM: Nuclear receptor ROR-gamma (Mus musculus) (UniProt P51450)
- METHOD SUMMARY: qHTS for inhibitors of ROR gamma transcriptional activity; also: nearly all actives have a fitted effect of over 60% in size; also: potency is read from the fitted curve at half-maximal effect
- TEST SETTINGS: Drosophila S2 Gal4-RORgamma UAS-luciferase reporter, 20 h; series mostly up to 53.6 µM
The whole screen tested about 310,000 compounds, of which about 17,000 (5.5%) were called active. Another 11% or so got no clear call; they are omitted. The list comes from a sample in which actives are over-represented; it also holds close analogues and randomly drawn compounds.
ENDPOINT: Potency

// worked examples, Potency included
O=c1c2ccccc2ncn1/N=C/c1ccccc1 | 10 µM (active)
CC1CC(C)CN(CCCNC(=O)c2csc3c2CCCCC3)C1 (stereo unspecified) | inactive
CN(C)CCCN(C(=O)c1ccc(S(=O)(=O)N2CCCCCC2)cc1)c1nc2ccc(Br)cc2s1 | 2.82 µM (active)
Cc1nc2ccccc2c(=O)n1NC(=O)c1ccccc1 | inactive
O=C(CNC(=O)c1cccnc1)N/N=C/c1cccnc1 | inactive

q: What value of Potency has been reported for the following molecule? O=C(Nn1cnc2ccccc2c1=O)c1ccccc1
a: inactive

q: Thanks! And Cc1ccc(C(=O)OCC(=O)NC(=O)Cc2ccccc2)c(O)c1 ?
a: inactive

q: Thanks! And COc1ccc(NC(=O)CCCNC(=O)Cn2cnc3sc4c(c3c2=O)CCCC4)cc1OC ?
a: inactive

---

- STUDY SYSTEM: Nuclear receptor ROR-gamma (Mus musculus) (UniProt P51450)
- METHOD SUMMARY: qHTS for inhibitors of ROR gamma transcriptional activity; also: nearly all actives have a fitted effect of over 60% in size
- TEST SETTINGS: Drosophila S2 Gal4-RORgamma UAS-luciferase reporter, 20 h; series mostly up to 53.6 µM
Out of some 310,000 compounds screened, about 17,000 (5.5%) were called active. Not shown: some 11% with an inconclusive outcome. Calls come from the whole dose curve; as a rule, active = well fitted inhibition curve with a large enough effect; inconclusive = small, poorly fitted or top-dose-only effect, or effect the other way; inactive = no such curve, though single readings can be large or run the other way. Many of the other results were omitted from the sample, so actives are more common in it than they were.
Give your call using only these classes: yes for active, no for inactive

q: Name the outcome recorded for Cn1nc(-c2ccccc2)c2cc([N+](=O)[O-])ccc21 in the assay.
a: no

q: Thanks! And O=C(CN(Cc1ccc(Br)cc1)S(=O)(=O)c1ccccc1)NCc1ccncc1 ?
a: no

q: Thanks! And CCCn1c(=S)[nH]c2ccc(C(F)(F)F)cc21 ?
a: no

q: Thanks! And CCOC(=O)N1CCN(CCC(=O)Nc2ccccc2)CC1 ?
a: no

q: Thanks! And O=C1CCCCN1CCCC(=O)N1CCCC(Nc2ccc(F)cc2)C1 (stereo unspecified) ?
a: no

q: Thanks! And COCCNC(=O)CSc1nc2sccc2c(=O)n1-c1ccccc1 ?
a: no

q: Thanks! And CCC(C)(C)NC(=O)C(c1ccc(OC)cc1)N(C(=O)CCC(=O)Nc1cc(C)on1)c1ccc(OC)cc1OC (stereo unspecified) ?
a: no

q: Thanks! And Cc1ccccc1-n1c(C)cc(/C=N/NC(=O)c2ccc(CN3CCOCC3)cc2)c1C ?
a: yes

q: Thanks! And COc1ccccc1CNC(=O)c1ccc(CS(=O)(=O)c2ccccc2)o1 ?
a: no

q: Thanks! And O=C(c1ccco1)N1CCN(Cc2cccc(C(F)(F)F)c2)CC1 ?
a: no

q: Thanks! And Cn1c(-c2sccc2OCc2cccc(C(F)(F)F)c2)n[nH]c1=S ?
a: yes

---

- STUDY SYSTEM: Nuclear receptor ROR-gamma (Mus musculus)
- METHOD SUMMARY: qHTS for inhibitors of ROR gamma transcriptional activity; also: nearly all actives have a fitted effect of over 60% in size
- TEST SETTINGS: Drosophila S2 Gal4-RORgamma UAS-luciferase reporter, 20 h; series mostly up to 53.6 µM
In all, about 310,000 compounds went through this assay and about 17,000 (5.5%) were called active. About 11% were inconclusive and are not listed. Calls follow the shape of the dose curve; as a rule, active = well fitted inhibition curve with a large enough effect; inconclusive = small, poorly fitted or top-dose-only effect, or effect the other way; inactive = no such curve, though single readings can be large or run the other way. Many of the other results were omitted from the sample, so actives are more common in it than they were.
Give your call using only these classes: active, inactive

q: Name the outcome recorded for CC1CC(C)CN(CCCNC(=O)Cn2ncc3c([nH]c4ccccc43)c2=O)C1 (stereo unspecified) in the assay.
a: inactive

q: Thanks! And Cc1ccccc1C(=O)NC(=S)NC1CC1 ?
a: active

q: Thanks! And CC(=O)NC(=O)c1ccccc1O ?
a: inactive

q: Thanks! And COc1ccc(-c2nn(-c3ccccc3)cc2/C=N/Nc2ccccn2)cc1OC ?
a: active

q: Thanks! And CNC(=O)C(NC(=O)c1ccccc1)=C(C)C ?
a: inactive

q: Thanks! And Cc1nnc(SCC(=O)N/N=C/c2cn(-c3ccccc3)nc2-c2ccc(F)cc2)n1-c1ccccc1 ?
a: inactive

q: Thanks! And C/C(=N\NC(=O)c1ccoc1C)c1ccccc1O ?
a: active

q: Thanks! And CC(C)=C(NC(=O)c1ccccc1)C(=O)N/N=C(\C)c1ccccc1O ?
a: active

q: Thanks! And CN(C)/N=C/c1cn(-c2ccccc2)nc1-c1cccnc1 ?
a: inactive

q: Thanks! And COc1cccc(C2CC(c3cccs3)=NN2C(=O)CSC2=NCCS2)c1OC (stereo unspecified) ?
a: inactive

q: Thanks! And CC1=CC(C)(C)N(C(=O)CSc2nnc(-c3ccccc3)o2)c2ccc(C)cc21 ?
a: inactive

---

- STUDY SYSTEM: Nuclear receptor ROR-gamma (Mus musculus)
- METHOD SUMMARY: qHTS for inhibitors of ROR gamma transcriptional activity; also: nearly all actives have a fitted effect of over 60% in size
- TEST SETTINGS: Drosophila S2 Gal4-RORgamma UAS-luciferase reporter, 20 h; series mostly up to 53.6 µM
About 17,000 (5.5%) of roughly 310,000 compounds were called active. Not shown: some 11% with an inconclusive outcome. The call rests on the fitted dose curve; in most records, active means well fitted inhibition curve with a large enough effect; inconclusive means small, poorly fitted or top-dose-only effect, or effect the other way; inactive means no such curve, though single readings can be large or run the other way. What follows is part of a selection rich in actives, with near analogues and random picks from the rest.
Give your call using only these classes: t for active, f for inactive

q: Name the outcome recorded for COc1ccc(NC(=O)c2cc([N+](=O)[O-])ccc2NC(=O)CNC2CCCCC2C)c(OC)c1 (stereo not given) in the assay.
a: f

q: Thanks! And COCCCNC(=O)Cn1cc(/C=C(\C#N)C(=O)N2CCN(c3ccccc3)CC2)c2ccccc21 ?
a: f

q: Thanks! And CC1=NN(C(=O)Cc2ccc(C)cc2)C(O)(c2cccnc2)C1 (stereo not given) ?
a: t

q: Thanks! And O=C(c1cccc(F)c1)N1CCC(O)(c2cccnc2)CC1 ?
a: f

q: Thanks! And Cc1ccc(NC2CCCN(C(=O)CCc3cn[nH]c3)C2)cc1C (stereo not given) ?
a: f

q: Thanks! And COC(=O)Cn1cc(/C=C/[N+](=O)[O-])c2ccccc21 ?
a: t

q: Thanks! And COc1cc2c(cc1/C=C1/NC(=O)N(c3ccccc3)C1=O)OCO2 ?
a: f

q: Thanks! And CCC(C)[C@H](NC(=O)N1CCn2c1nc1ccccc12)C(=O)NCc1ccc(OC)cc1 (stereo not given in full) ?
a: f

q: Thanks! And Cc1ccc(NC(=O)N2CCC(O)(c3cccnc3)CC2)cc1 ?
a: f

q: Thanks! And COc1ccc(N2CCN(C3CCCCC3NS(=O)(=O)c3ccccc3)CC2)cc1 (stereo not given) ?
a: f
